target: T1, HLA-A*02:01 (peptide-receptive MHC class I monomer from UV-ligand exchange) (human); assay: UV-exchange ELISA (anti-b2m); exchange yield grade: + >=10%, ++ >=20%, +++ >=50%, ++++ >=75%
T1 construct: Monomers were captured on streptavidin-coated plates
attribute-measured: peptide exchange yield

> print(dat)
                                     binder  observed.measurement
1  QMLDVAIRV [peptide QMLDVAIRV (SEQ ID NO 29)]             50 to 75%
2  ALLPRYFFL [peptide ALLPRYFFL (SEQ ID NO 2)]             20 to 50%
3  KLLDVVHPA [peptide KLLDVVHPA (SEQ ID NO 131)]             20 to 50%
4  KLGQVLIYL [peptide KLGQVLIYL (SEQ ID NO 112)]             20 to 50%
5  GLLDPSVFHV [peptide GLLDPSVFHV (SEQ ID NO 158)]             50 to 75%

QUERY: What measured peptide exchange yield goes with SLIEYEFRV [peptide SLIEYEFRV (SEQ ID NO 89)] ?
RESULT: 50 to 75%

QUERY: What measured peptide exchange yield goes with QLTEIKPLL [peptide QLTEIKPLL (SEQ ID NO 137)] ?
RESULT: 50 to 75%

QUERY: What measured peptide exchange yield goes with YLMGFLHAV [peptide YLMGFLHAV (SEQ ID NO 74)] ?
RESULT: 50 to 75%

QUERY: What measured peptide exchange yield goes with ALLNAILHSA [peptide ALLNAILHSA (SEQ ID NO 132)] ?
RESULT: 50 to 75%

QUERY: What measured peptide exchange yield goes with KLLEFDQLQL [peptide KLLEFDQLQL (SEQ ID NO 160)] ?
RESULT: 50 to 75%

QUERY: What measured peptide exchange yield goes with YLFREPATI [peptide YLFREPATI (SEQ ID NO 178)] ?
RESULT: 20 to 50%

QUERY: What measured peptide exchange yield goes with ALIKQLFEA (also called ZNF-002) [peptide ALIKQLFEA (SEQ ID NO 1)] ?
RESULT: 50 to 75%

QUERY: What measured peptide exchange yield goes with SLAPNIISQL [peptide SLAPNIISQL (SEQ ID NO 121)] ?
RESULT: 50 to 75%
